# systemUnderTest: Homeobox protein Hox-A13 (Mus musculus) (UniProt Q62424)
# Sequence (Q62424 whole entry, looked up): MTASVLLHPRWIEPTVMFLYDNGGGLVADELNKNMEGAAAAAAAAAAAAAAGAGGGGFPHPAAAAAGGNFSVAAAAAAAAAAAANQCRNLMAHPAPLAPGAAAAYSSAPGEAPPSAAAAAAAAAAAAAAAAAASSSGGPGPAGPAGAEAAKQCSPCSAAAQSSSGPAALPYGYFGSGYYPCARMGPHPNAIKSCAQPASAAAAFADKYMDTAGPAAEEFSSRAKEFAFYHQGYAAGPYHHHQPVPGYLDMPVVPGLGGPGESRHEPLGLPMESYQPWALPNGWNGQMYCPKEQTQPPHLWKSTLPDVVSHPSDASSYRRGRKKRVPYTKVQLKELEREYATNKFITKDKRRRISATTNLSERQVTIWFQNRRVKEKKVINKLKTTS
# assayComment: inhibitors of HoxA13-DNA binding, primary screen, biochemical, fluorescence polarization, labeled oligonucleotide (AID 1185)
# particulars: 15 min, higher = more signal, called active from +8 up or from −8 down
Give measured z-score for each item. Keep answers brief.
# respond with the number and nothing more

Reported z-score, compound CCCCCCCCCCC(O)C1C=CC2C(=O)N(C)C(=O)C2N1Nc1cc(OC)c(OC)c(OC)c1 (centres undefined) : ____
-3.83

Which z-score is reported for this compound? `COC(=O)[C@@]1(Cc2ccc(OC)cc2)[C@H]2c3cc(C(=O)N4CCCC4)n(Cc4ccc(OC(F)(F)F)cc4)c3C[C@H]2CN1C(=O)c1ccccc1`
-2.94

Which value of z-score has been reported for COc1ccc(C(O)C2C=CC3C(=O)N(c4ccccc4)C(=O)C3N2Nc2ccccc2F)cc1 (centres undefined) in the records?
-3.05

Sample `CN(C)C(=O)[C@@]1(Cc2ccccc2)COC(c2ccc(OCCCO)cc2)=N1` — what was its z-score?
-6.02

Query (compound): `CN(C)C(=O)[C@@]1(CCC(=O)OC(C)(C)C)N=C(c2ccc(OCCCO)cc2)O[C@H]1c1ccccc1CN=[N+]=[N-]` ; field requested: z-score
-5.91

What z-score value was documented for this compound, `[N-]=[N+]=NCc1ccccc1[C@@H]1OC(c2ccc(OCCCO)cc2)=N[C@]1(Cc1ccccc1)C(=O)NCCN1CCOCC1` ?
-1.66

Can you share its z-score? I mean this compound: CCN(CC)c1ccc(N2CC=CC34O[C@@H]5C=CCCOC(=O)C5[C@H]3C(=O)N(CCO)[C@@H]4C2=O)cc1 (some centres undefined)
-5.85

What does the record list as z-score for `CO[C@H]1O[C@H](CO)[C@@H](OC(=O)Nc2ccc(C#N)cc2)[C@@H]2OC(=O)[C@H](Cc3cccc(Br)c3)C/C=C/C[C@@H](Cc3cccc(Br)c3)C(=O)O[C@@H]12` ?
1.1

Look at this compound and give its reported z-score. `CCc1cccc(NC(=O)O[C@H]2[C@H](OC(=O)Nc3ccccc3)[C@H](OC(=O)Nc3ccccc3)[C@@H](OC)O[C@@H]2CO)c1`
-5.74

What does the record list as z-score for `CC(=O)NCCCC[C@@H]1NC(=O)[C@H]2C[C@@H](C(=O)NCCCCCNC(=O)CS)[C@@H](c3cccc(OCCO)c3)N2C1=O` ?
-3.69

Find the recorded z-score belonging to `COCCOC(=O)N1C(=O)[C@@]2(c3cc(C#Cc4ccc(OC)cc4)ccc31)[C@H](C(=O)NC[C@H](O)c1ccccc1)[C@H]1C(=O)O[C@H](c3ccccc3)[C@H](c3ccccc3)N1[C@@H]2c1ccc(OCCO)cc1` and report it.
1.56

What z-score value was documented for this compound, `Cc1cccc([C@H]2C[C@H]3C(Br)=C[C@@H]2C(=O)[C@]32CO2)c1` ?
-1.65

Return reported z-score; argument: `COCCOC(=O)N1C(=O)[C@@]2(c3ccccc31)[C@H](c1ccc(OCCO)cc1)N1[C@H](c3ccccc3)[C@H](c3ccccc3)OC(=O)[C@H]1[C@@H]2C(=O)N1CCCCCCC1`
-15.8

Which z-score value is on record for `Cc1ccc([C@H]2C(C(=O)O)=C[C@@H](C(C)(C)C)N2S(=O)(=O)c2ccc(C)cc2)cc1` ?
-4.73

---

For each of the compounds below, state its z-score.
# assayComment: FRG1 promoter luciferase signal modulators, primary screen, FRG1 inhibition for FSHD, cell-based, C2C12 myotubes, firefly/Renilla luciferase, luminescence (AID 1084)
# particulars: higher = more signal, called active from +8 up or from −8 down
Give your answer as a number; write no unit.

State the recorded z-score for this entry: `COC(=O)[C@@]1(Cc2ccccc2)[C@H]2c3cc(C(=O)N(C)C)n(CCn4cc([N+](=O)[O-])nc4C)c3C[C@H]2CN1C(=O)c1ccccc1`
-0.0393

May I ask what z-score has been recorded for `C=C(COC)/C(=C/C[C@H](OC(C)=O)c1cccc(OCCO)c1)c1cnc2ccccc2c1` ?
1.46

What value of z-score has been reported for the following compound? CN1C=C(C(=O)OCCS(C)(=O)=O)C(C(=O)OCCS(C)(=O)=O)=CC(c2ccc(CO)cc2)=CC1c1cccs1 (stereo not drawn)
2.55

Query (compound): `[N-]=[N+]=Nc1ccccc1C[C@]1(C(=O)NCc2ccccc2)COC(c2ccc(OCCCO)cc2)=N1` ; field requested: z-score
-1.36

Param item = `O=C(CS)NCCCCCCNC(=O)[C@@H]1C[C@@H]2C(=O)NCC(=O)N2[C@@H]1c1ccc(O)cc1` ; retrieve measured z-score.
-1.15

Entry `COCCOC(=O)N1C(=O)[C@@]2(c3cc(C#CC4(O)CCCCCC4)ccc31)[C@H](C(=O)N1CCN(c3ncccn3)CC1)[C@H]1C(=O)O[C@H](c3ccccc3)[C@H](c3ccccc3)N1[C@@H]2c1ccccc1OCCO` : reported z-score = ?
0.041

Returns the measured z-score for the input compound. Input: `COC(=O)C(CC#Cc1ccc2c(c1)[C@]1(C(=O)N2)[C@H](c2ccc(O)cc2)N2[C@H](c3ccccc3)[C@H](c3ccccc3)OC(=O)[C@H]2[C@@H]1C(=O)N1CCCCCCC1)C(=O)OC`
-0.546

Would you kindly share the measured z-score for `COc1ccc(C#Cc2ccc3c(c2)[C@]2(C(=O)N3)[C@H](C(=O)N3CCCCCCC3)[C@H]3C(=O)O[C@H](c4ccccc4)[C@H](c4ccccc4)N3[C@@H]2c2ccc(O)cc2)cc1` ?
0.626

---

Field: z-score. Provide a value for each of the compounds that follow.
# assayComment: basal MM1S mitochondrial membrane potential changes, profiling panel, cell-based, JC-1 fluorescence, 24 h, 100 nL compound (AID 1170); further: test concentration not given here
# particulars: higher = more signal

Please report the recorded z-score for `COc1ccc([Si](C)(C)[C@@H]2[C@@H](CC(=O)N3Cc4ccccc4C[C@H]3CO)O[C@]3(C(=O)N(Cc4ccc(N5CCC5=O)cc4)c4ccccc43)[C@H]2C)cc1` .
-0.502

Tell me the measured z-score of `O=C1O[C@H](c2ccccc2)[C@H](c2ccccc2)N2[C@H]1[C@@H](C(=O)Nc1nc3ccccc3s1)[C@]1(C(=O)Nc3ccc(C#CC4=CCCCC4)cc31)[C@H]2c1ccc(O)cc1` , please.
-0.991

Look at this compound and give its reported z-score. Cc1ccc(C(C)CC(O)C2C=CC3C(=O)N(c4ccccc4)C(=O)C3N2Nc2ccc(C#N)cc2)o1 (centres undefined)
-1.2

Need z-score of CN1C(=O)C2C=CC(C(O)c3cc(C(F)(F)F)cc(C(F)(F)F)c3)N(NC(=O)OC(C)(C)C)C2C1=O (centres undefined) , thanks.
0.546

Give the measured z-score of `COC(=O)[C@@]1(Cc2ccccc2)[C@H]2c3cc(C(=O)N4CCCC4)n(CCSCCO)c3C[C@H]2CN1C(=O)c1ccccc1` .
0.0172

Requested read-out: z-score. Entry: `COCCOC(=O)N1C(=O)[C@@]2(c3cc(C#CCCO)ccc31)[C@H](c1ccccc1OCCO)N1[C@H](c3ccccc3)[C@H](c3ccccc3)OC(=O)[C@H]1[C@@H]2C(=O)N1CCCCCCC1`
-1.31

Form field: reported z-score of `CO[C@H]1O[C@H](CO)[C@@H](OC(=O)CCc2ccccc2)[C@H](OC(=O)c2cc3ccccc3[nH]2)[C@H]1OC(=O)c1cc2ccccc2[nH]1`
-1.1

What value of measured z-score is listed for `CC(C)(C)OC(=O)CC[C@]1(C(=O)N2CCCCC2)COC(c2ccc(OCCCO)cc2)=N1` ?
-0.978

Recorded z-score of `COCCOC(=O)N1C(=O)[C@@]2(c3ccccc31)[C@H](c1ccccc1OCCO)N1[C@H](c3ccccc3)[C@H](c3ccccc3)OC(=O)[C@H]1[C@@H]2C(=O)N1CCCCCCC1` , please.
-1.07

---

# assayComment: RPMI8226 myeloma cell viability, profiling panel, resazurin fluorescence, basal, 24 h, PK04 Diversity Set (AID 1180);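 further: RPMI8826 multiple myeloma cell line at 5000 cells per well; test concentration not given here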
# particulars: higher = more signal
Answer each item with its documented z-score.
The answer should be a number; do not append a unit.

Would you mind telling me what z-score value was observed for `COc1ccc(C(=O)Nc2cccc(CN3C(=O)[C@]4(O[C@H](CCn5cc([C@H](O)c6ccccc6)nn5)[C@@H]([Si](C)(C)c5ccc(OC)cc5)[C@@H]4C)c4ccccc43)c2)cc1` ?
-5.61

Suppose we examine the compound O=C1NC(=O)C2C1C=CC(C(O)c1ccccn1)N2Nc1ccc(Cl)cc1Cl (centres undefined) ; what z-score value has been reported?
-1.82

Please give the measured z-score for this compound: `CC(C)C(=C=CC[C@@H](O)c1cccc(OCCO)c1)C[C@@H](O)c1ccccn1`
0.463

Which measured z-score value corresponds to `O=C1O[C@H](c2ccccc2)[C@H](c2ccccc2)N2[C@H]1[C@@H](C(=O)N1CCCCCCC1)[C@]1(C(=O)Nc3ccc(C#CC4(O)CCCCCC4)cc31)[C@H]2c1ccc(O)cc1` ?
0.295

What value of z-score has been recorded for this entry: `CCCNC(=O)[C@@]1(Sc2ccc(C)cc2)CC(=O)N(C2CCCCC2)[C@@H]1c1ccc(CO)cc1I`
-1.1

Form field: reported z-score of CN1C(=O)C2C=CC(C(O)c3cc(C(F)(F)F)cc(C(F)(F)F)c3)N(NC(=O)OC(C)(C)C)C2C1=O (centres undefined)
0.349

Can you share its z-score? I mean this compound: `C=C(C(=O)CC[C@H](OC(=O)c1ccccc1-c1ccccc1C(=O)O)c1ccccc1OCCO)C(C)C`
-0.268

Quick check: z-score of `COCC(=C=CC[C@@H](O)c1ccc(OCCO)cc1)CCO` ?
2.08

# input compound: `COCCOC(=O)N1C(=O)[C@@]2(c3cc(C#CCC(C(=O)OC)C(=O)OC)ccc31)[C@H](C(=O)NC[C@H](O)c1ccccc1)[C@H]1C(=O)O[C@H](c3ccccc3)[C@H](c3ccccc3)N1[C@@H]2c1ccc(O)cc1` ; wanted: its z-score
-1.4

# lookup: z-score of C=C(C)C1CCC(C(O)C2C=CC3C(=O)N(C)C(=O)C3N2Nc2cc(OC)c(OC)c(OC)c2)CC1 (centres undefined)
-1.27

Requested read-out: z-score. Entry: `C=C(/C(=C/C[C@@H](OC(=O)c1ccncc1)c1cccc(OCCO)c1)c1cnc2ccccc2c1)C(C)C`
0.0866

Returns the measured z-score for the input compound. Input: `COc1ccc([Si](C)(C)[C@H]2[C@H](CC(=O)N3CCC[C@H]3CO)O[C@@]3(C(=O)N(Cc4ccc(N5CCC5=O)cc4)c4ccccc43)[C@@H]2C)cc1`
-0.944

# input compound: `COCCOC(=O)N1C(=O)[C@@]2(c3cc(C#CC4=CCCCC4)ccc31)[C@H](c1ccc(O)cc1)N1[C@H](c3ccccc3)[C@H](c3ccccc3)OC(=O)[C@H]1[C@@H]2C(=O)NC[C@H](O)c1ccccc1` ; wanted: its z-score
-2.55

Can you look up the measured z-score of C=CCC(OC(C)=O)[C@@H]1[C@@H](N(Cc2cccc3ccccc23)C(=O)c2cccc3ccccc23)c2cc(OCCCO)ccc2N1C(=O)c1ccc2ccccc2c1 (some centres undefined) for me?
-0.0722

Source: PubChem BioAssay
